# Species: Rattus norvegicus
# Measurement notes: Open TG-GATES - Regimen: Single
# Assay type: toxicity, organism-based, Sprague-Dawley
# Set-up: regimen Single, gender Male, age 6 weeks
# Experimental parameters: in vivo, po, 0 mg/kg, 24 h, tissue Blood, route gavage, dose level Control
Values of Lym strictly less than 80% map to rule met, and values of at least 80% map to rule not met.

> print(dat)
                                   compound  assigned.class
1  NS(=O)(=O)c1cc(C(=O)O)c(NCc2ccco2)cc1Cl [FUROSEMIDE]        rule met
2                                       CCO        rule met
3  CC(=O)[C@@]1(O)CC[C@H]2[C@@H]3C=C(Cl)C4=CC(=O)CC[C@]4(C)[C@H]3CC[C@@]21C    rule not met
4                   Nc1ccc(Cc2ccc(N)cc2)cc1        rule met
